These data points were gathered from PubChem BioAssay.

- target entity: Fibroblast growth factor 10 (Homo sapiens) (UniProt O15520)
- Sequence (O15520 whole entry, looked up): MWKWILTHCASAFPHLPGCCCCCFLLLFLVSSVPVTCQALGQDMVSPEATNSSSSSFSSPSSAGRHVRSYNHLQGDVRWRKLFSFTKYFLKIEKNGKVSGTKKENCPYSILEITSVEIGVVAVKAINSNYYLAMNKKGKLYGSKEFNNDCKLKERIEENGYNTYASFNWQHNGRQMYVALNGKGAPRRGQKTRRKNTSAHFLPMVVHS
- protocol summary: FGF10 binders on small-molecule microarrays, primary screen, biochemical, small-molecule microarray, 635 nm fluorescence (AID 1102)
- condition description: FGF10 binding, fluorescence 635 nm, higher = more signal
Lab note: compare composite z-score against 0.9. Equal or greater, write yes (1). Smaller, write no (0).

COc1cc2c(cc1OC)CN(C(=O)[C@H]1[C@@H]3C(=O)O[C@@H](c4ccccc4)[C@@H](c4ccccc4)N3[C@@H](c3ccc(OCCO)cc3)[C@]13C(=O)Nc1ccc(C#CC4(O)CCCCCC4)cc13)CC2 : yes (1)
CO[C@H]1O[C@H](CO)[C@@H](OC(=O)Nc2ccccc2-c2ccccc2)[C@H](OC(=O)Nc2ccc3c(c2)OCO3)[C@@H]1OC(=O)Nc1ccc2c(c1)OCO2 : yes (1)
C=CC[C@@]1(C(=O)O)N=C(c2ccc(OCCCO)cc2)O[C@@H]1c1ccccc1 : no (0)
CCCCN1CC=CC23O[C@@H]4C=CCOC(=O)[C@@H]4[C@H]2C(=O)N(CCCO)[C@@H]3C1=O (some centres not stated) : no (0)
COc1ccc([Si](C)(C)[C@H]2[C@H](CCn3cc([C@H](O)c4ccccc4)nn3)O[C@@]3(C(=O)N(Cc4ccc(N5CCC5=O)cc4)c4ccccc43)[C@@H]2C)cc1 : no (0)

Query :: Is reported composite z-score greater than or equal to 0.9 here: "NCCCCCNC(=O)[C@@H]1C[C@@H]2C(=O)N[C@@H](CCCCN)C(=O)N2[C@@H]1c1cccc(OCCO)c1"
Result :: no (0)

====

- protocol summary: E. coli DRC41 culture turbidity changes, primary screen, E. coli filamentation inducer project, strain DRC41, OD650, 48 h (AID 1152);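 also: E. coli MC1000 strain DRC41 lacking acrAB efflux pump and sulA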
- condition description: E. coli DRC41 (acrAB sulA), higher = more signal, called active from +8 up or from −8 down
Known z-score of a selection of compounds
Returns: the value as a bare number; no unit string appended.

O=C1O[C@@H](c2ccccc2)[C@@H](c2ccccc2)N2[C@@H](c3ccccc3OCCO)[C@]3(C(=O)Nc4ccc(C#CCCO)cc43)[C@@H](C(=O)Nc3nc4ccccc4s3)[C@H]12 : 1.4
COCCCNC(=O)[C@@]1(Sc2ccc(C)cc2)CC(=O)N(Cc2cc(C(F)(F)F)cc(C(F)(F)F)c2)[C@@H]1c1ccc(CO)cc1 : 0.154
C=CC[C@@]1(C(=O)O)N=C(c2ccc(OCCCO)cc2)O[C@@H]1c1ccccc1 : 0.938
CC(C)(C)OC(=O)CC[C@]1(C(=O)N2CCOCC2)N=C(c2ccc(OCCCO)cc2)O[C@H]1c1ccccc1 : 1.12
COc1ccc([Si](C)(C)[C@@H]2[C@@H](CCn3cc([C@H](O)c4ccccc4)nn3)O[C@]3(C(=O)N(Cc4ccc(N5CCOC5=O)cc4)c4ccccc43)[C@H]2C)cc1 : 1.34

// z-score value for "Cc1ccc(S[C@]2(C(=O)NCC(F)(F)F)CC(=O)N(Cc3ccccc3)[C@@H]2c2ccc(CO)cc2)cc1" : -0.009

// z-score value for "CCOC(=O)C1=CC[C@@H](c2cc(Cl)ccc2Cl)N(S(=O)(=O)c2ccc(C)cc2)[C@H]1c1ccc(OC)cc1" : -0.718

// z-score value for O=C1OC[C@@H](c2ccccc2)N2CC(/C=C/c3ccccc3)=CC12 (stereo partly specified) : -0.107

// z-score value for C=C1C2CC3C(=C4C(CO[C@@H]4[C@H]4CCCN4S(=O)(=O)c4ccccc4[N+](=O)[O-])C4C(=O)N(C)C(=O)C34)CC2C(=O)N1C (stereo partly specified) : -0.523

// z-score value for "C[C@]1(C(=O)O)c2ccccc2C(=O)N(Cc2ccccc2)[C@H]1c1ccc(CO)cc1" : 0.576

// z-score value for O=C1OCC=C[C@H]2OC34C=CCN(c5ccc(Cl)cc5)C(=O)[C@H]3N(CCCCCO)C(=O)[C@@H]4[C@@H]12 (stereo partly specified) : 0.553

// z-score value for "C=C[C@@H](C)[C@H](OC(=O)Nc1ccc(SC)cc1)c1ccc(OCCO)cc1" : -0.605

// z-score value for "Cc1ccc(S[C@]2(C(=O)NC(C)C)CC(=O)N(C3Cc4ccccc4C3)[C@@H]2c2ccc(CO)cc2I)cc1" : 0.135

// z-score value for "O=C(CS)NCCCCCCNC(=O)[C@@H]1C[C@@H]2C(=O)N3CCC[C@H]3C(=O)N2[C@@H]1c1cccc(OCCO)c1" : 1.89

// z-score value for "O=C(O)[C@H]1C[C@H]2C(=O)N3CCC[C@H]3C(=O)N2[C@H]1c1cccc(OCCO)c1" : 0.71

// z-score value for "C=C(CCCC)C(=O)CC[C@@H](OC(=O)c1cccnc1)c1ccccc1OCCO" : 0.225

====

- protocol summary: E. coli acrAB mutant growth effects, primary screen, E. coli filamentation inducers, strain DRC39, OD650, 48 h (AID 1179);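 also: screen aims at cell division blockers that make cells filament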
- condition description: E. coli DRC39 delta-acrAB growth, higher = more signal, called active from +8 up or from −8 down
assay endpoint: z-score
Returns: the value as a bare number; no unit string appended.

CN1C(=O)C2C(C1=O)C1C=C(c3ccc(CO)cc3)C2C(c2cccs2)N1Cc1cccc(OC(F)(F)F)c1 (configuration not stated) : -0.319

// z-score value for "CC(C)(C)OC(=O)CC[C@@]1(C(=O)O)N=C(c2ccc(OCCCO)cc2)O[C@@H]1c1ccccc1" : -0.202

// z-score value for CCN(CC)c1ccc(N2CC=CC34O[C@@H]5/C=C\CCC(C)OC(=O)C5[C@H]3C(=O)N(CCO)[C@@H]4C2=O)cc1 (some centres not stated) : -0.949

// z-score value for CC1CC/C=C\[C@H]2OC34C=CCN(CCN5CCOCC5)C(=O)[C@H]3N(CCO)C(=O)[C@@H]4C2C(=O)O1 (some centres not stated) : -0.557

// z-score value for "C=CCOC(=O)[C@@H]1[C@H]2C(=O)O[C@H](c3ccccc3)[C@H](c3ccccc3)N2[C@H](c2ccc(OCCOC(=O)[C@H]3C[C@H]4C(=O)N[C@@H](CCCCNC(C)=O)C(=O)N4[C@H]3c3cccc(OCCO)c3)cc2)[C@@]12C(=O)Nc1ccc(I)cc12" : 0.228

// z-score value for "O=c1cccc(-c2ccc(C(F)(F)F)cc2)o1" : -0.325

// z-score value for "C=CCN1C(=O)[C@@]2(O[C@@H](CCn3cc([C@H](O)c4ccccc4)nn3)[C@H]([Si](C)(C)c3ccc(OC)cc3)[C@H]2C)c2ccccc21" : -0.857

====

- protocol summary: binders of probe aHhip on microarray, primary screen, stem cell growth factor project, biochemical, small-molecule microarray, fluorescence 635/667 (AID 1087);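 also: score merges spot fluorescence at 667nm with spot signal to noise ratio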
- condition description: higher = more signal
Lab note: compare composite z-score against 0.09. Equal or greater, write true. Smaller, write false.

These solved cases illustrate the format of a correct answer.
CCCNC(=O)[C@@]1(c2ccc([N+](=O)[O-])cc2)CC(=O)N(C2CCCCC2)[C@@H]1c1ccc(CO)cc1I : false
C=C(/C(=C/C[C@@H](OC(=O)c1ccncc1)c1ccccc1OCCO)c1cc(C(=O)OC)ccc1OC)C(C)C : false
C=C[C@@H](COC(C)=O)NS(=O)(=O)c1ccc(Br)cc1 : false
COc1ccc([Si](C)(C)[C@H]2[C@H](CCO)O[C@@]3(C(=O)N(Cc4cccc(N5CCCCC5=O)c4)c4ccccc43)[C@@H]2C)cc1 : true
COc1ccc([Si](C)(C)[C@H]2[C@H](CC(=O)N3Cc4ccccc4C[C@H]3CO)O[C@@]3(C(=O)N(Cc4cccc(N5CCCCC5=O)c4)c4ccccc43)[C@@H]2C)cc1 : false

Query :: Is reported composite z-score greater than or equal to 0.09 here: "Cc1ccc(S[C@]2(C(=O)NC3CC3)CC(=O)N(Cc3ccccc3Cl)[C@@H]2c2ccc(CO)cc2I)cc1"
Result :: false

Query :: Is reported composite z-score greater than or equal to 0.09 here: "COC(=O)[C@@]1(Cc2ccc(OC)cc2)[C@H]2c3cc(C(=O)N(C)C)n(CCc4c[nH]c5ccc(O)cc45)c3C[C@H]2CN1C(=O)c1ccccc1"
Result :: true

====

- protocol summary: small-molecule microarray binders of probe aShh, primary screen, biochemical, biotinylated probe, 635/667 nm fluorescence (AID 1114);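 also: probe is biotin-labelled aShh protein from a stem cell growth factor screen; measures binding of labelled protein to compounds printed on the slide; score merges feature fluorescence at 667 nm with signal-to-noise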
- condition description: higher = more signal
assay endpoint: composite z-score
Returns: the value as a bare number; no unit string appended.

Worked set:
COCCCNC(=O)[C@]1(Cc2ccccc2CN=[N+]=[N-])N=C(c2ccc(OCCCO)cc2)O[C@@H]1c1ccccc1 : -0.279
O=c1cccc(-c2cccc(Cl)c2)o1 : -0.338
C[n+]1ccc(CCCO)cc1 : 0.475
O=C1C2C=CC(C(O)c3cc(C(F)(F)F)cc(C(F)(F)F)c3)N(Nc3ccc([N+](=O)[O-])cc3)C2C(=O)N1c1ccccc1 (stereo not drawn) : -0.224
[N-]=[N+]=NCc1ccccc1C[C@]1(C(=O)NCC(O)CO)N=C(c2ccc(OCCCO)cc2)O[C@H]1c1ccccc1CN=[N+]=[N-] (stereo partly drawn) : 0.541

// composite z-score value for CC(C)(C)N1CC=CC23O[C@@H]4C=CCOC(=O)[C@@H]4[C@H]2C(=O)N(CCCO)[C@@H]3C1=O (stereo partly drawn) : -0.297

// composite z-score value for "COC(=O)[C@@]1(Cc2ccccc2)[C@H]2c3cc(C(=O)N4CCCC4)n(Cc4ccsc4Br)c3C[C@H]2CN1C(=O)c1ccccc1" : -0.0789

// composite z-score value for "C=C(CCCC)C(=O)CC[C@@H](OC(=O)c1cccnc1)c1ccccc1OCCO" : -0.138
